The binders listed here are annotated with their IC50.
# system: T1, HLA-DP402 molecule (DPB1*0402) (human, UniProt P20036 29-222, limits assumed)
# T1 construct: HLA class II heterodimer; also called DP*0402
# method: competitive ELISA, tracer Oxy 271-287

binder | IC50
LTLGEFLKLDRERAK (synthetic 15-mer) [survivin peptide 96-110] | 620 nM
KQFEELTLGEFLKLD (synthetic 15-mer) [survivin peptide 91-105] | 12 nM
LSVKKQFEELTLGEF (synthetic 15-mer) [survivin peptide 87-101] | 6390 nM
PTLPPAWQPFLKDHR (synthetic 15-mer) [survivin peptide 4-18] | 3590 nM
